Numbers sourced from the supplement of paper PMC7125110.

B1: glmS ribozyme (parent)
chain: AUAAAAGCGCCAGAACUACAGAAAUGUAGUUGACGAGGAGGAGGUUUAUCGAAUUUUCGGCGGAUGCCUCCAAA

variants of: B1; assay: self-cleavage kobs at 640 uM GlcN6P; higher = faster cleavage; RNA array; conditions: with glucosamine-6-phosphate
Variants at the floor of the assay were thinned out.
assay_endpoint: self-cleavage kobs at 640 uM GlcN6P

[
  {
    "mutation_spec": "C50G A53U A64G",
    "self-cleavage kobs at 640 uM GlcN6P": "< 1e-05 s⁻¹"
  }
]

Query: Which self-cleavage kobs at 640 uM GlcN6P value is on record for G40U G41U U49G C61G ?
Response: < 1e-05 s⁻¹

Query: Which self-cleavage kobs at 640 uM GlcN6P value is on record for G35A U55C ?
Response: < 1e-05 s⁻¹

Query: Which self-cleavage kobs at 640 uM GlcN6P value is on record for G40A C61U C68G C70G C71G ?
Response: < 1e-05 s⁻¹

Query: Which self-cleavage kobs at 640 uM GlcN6P value is on record for C10A U47A C70G ?
Response: 0.000288 s⁻¹

Query: Which self-cleavage kobs at 640 uM GlcN6P value is on record for G51C G59U ?
Response: < 1e-05 s⁻¹

Query: Which self-cleavage kobs at 640 uM GlcN6P value is on record for A14G A53U ?
Response: 0.011 s⁻¹

Query: Which self-cleavage kobs at 640 uM GlcN6P value is on record for A42U U45A ?
Response: 3.93e-05 s⁻¹

Query: Which self-cleavage kobs at 640 uM GlcN6P value is on record for G7C U54A ?
Response: < 1e-05 s⁻¹

Query: Which self-cleavage kobs at 640 uM GlcN6P value is on record for C8U U30G U55C ?
Response: < 1e-05 s⁻¹

Query: Which self-cleavage kobs at 640 uM GlcN6P value is on record for A39G G51U G59U ?
Response: < 1e-05 s⁻¹

Query: Which self-cleavage kobs at 640 uM GlcN6P value is on record for C67U C71G ?
Response: 4.78e-05 s⁻¹

Query: Which self-cleavage kobs at 640 uM GlcN6P value is on record for G7C C71A ?
Response: < 1e-05 s⁻¹
